# System: HCT-116 colon
# PROCEDURE DETAILS: NCI tumour cell line growth inhibition, 48 h
Let's look at some compounds and their measured TGI.
PARAMETER MEASURED: TGI

INSERT INTO measurements (compound, parameter_measured, result) VALUES
  ('Cc1noc2cccc(OCc3ccccc3)c12', 'TGI', '> 100 µM'),
  ('COC(=O)C1CCC(Nc2ccc(C)cc2C)=N1 (centres undefined)', 'TGI', '> 100 µM'),
  ('Cc1cc(NCCCNc2ccnc3cc(Cl)ccc23)nc(N2CCN(C)CC2)n1', 'TGI', '13 µM'),
  ('O=C(O)c1cc(=O)[nH]c(SCc2ccccc2)n1', 'TGI', '> 100 µM'),
  ('O=[N+]([O-])c1ccccc1N=Nc1c(O)[nH]c2ccc(Br)cc12', 'TGI', '> 67 µM'),
  ('CC(C)c1nc2cc(C(F)(F)F)ccc2[nH]c1=O', 'TGI', '> 100 µM'),
  ('COc1cc2cc(C(=O)CCC(=O)O)sc2cc1OC', 'TGI', '> 100 µM'),
  ('O=[N+]([O-])c1ccc(-c2nc3ccc([N+](=O)[O-])cc3[nH]2)cc1', 'TGI', '38.3 µM'),
  ('Cc1ccc(Cc2n[nH]c(=O)n2-c2ccccc2)cc1', 'TGI', '> 100 µM'),
  ('CC1(Cl)CC2OC3(Br)C=CC(C)(O)C2(CC1Br)C3(C)C (centres undefined)', 'TGI', '> 100 µM'),
  ('Nc1ccc(-c2cssc2=S)cc1', 'TGI', '> 100 µM'),
  ('Nc1cc(C(=O)O)[nH]c(=O)n1', 'TGI', '> 100 µM'),
  ('O=Cc1cc([N+](=O)[O-])no1', 'TGI', '33.7 µM'),
  ('CS(=O)(=O)OC1CN2CCC1CC2 (centres undefined)', 'TGI', '> 100 µM'),
  ('COc1ccc(-n2cc(-c3cc(OC)c(OC)c(OC)c3)nc2SCc2ccccc2)cc1', 'TGI', '> 100 µM'),
  ('CCC1C(=O)OCc2c1cc1n(c2=O)Cc2cc3ccccc3nc2-1 (centres undefined)', 'TGI', '> 100 µM'),
  ('CC(=O)N1N=C(c2ccc(Nc3nc(Nc4ccc(Cl)cc4)nc(Nc4ccc(Cl)cc4)n3)cc2)CC1c1ccc([N+](=O)[O-])cc1 (centres undefined)', 'TGI', '34.8 µM'),
  ('O=S(=O)(O)CCCC1S(=O)(=O)OCCOS1(=O)=O', 'TGI', '> 100 µM'),
  ('COc1cc(/C=C2/SC(c3ccccc3)N(c3cccc(Cl)c3)C2=O)cc(OC)c1OC (centres undefined)', 'TGI', '34.8 µM'),
  ('Nc1ccc2nc(NCc3ccc(F)cc3)cnc2c1', 'TGI', '> 100 µM'),
  ('CO/C=C(/C(=O)OC)c1ccccc1[C@@H]1CC1c1cccc(F)c1 (some centres undefined)', 'TGI', '77.3 µM'),
  ('CCOC(=O)/C(=N\OC)C(O)C(F)(F)F (centres undefined)', 'TGI', '> 100 µM'),
  ('O=C(C=P(c1ccccc1)(c1ccccc1)c1ccccc1)c1cccc(-c2cccc([N+](=O)[O-])c2)c1', 'TGI', '> 100 µM'),
  ('COc1cc(-c2cc(=O)c3c(OC)c(OC)c(OC)cc3o2)c(OC)c(OC)c1OC', 'TGI', '> 75 µM'),
  ('O=C(C[C@H](NC(=O)OCc1ccccc1)C(=O)NC1Cc2ccccc2OC1=O)OCc1ccccc1 (some centres undefined)', 'TGI', '76.3 µM'),
  ('O=c1ccc(N=Nc2ccc([N+](=O)[O-])cc2)ccc1O', 'TGI', '> 100 µM'),
  ('CCOc1ccc(NC(=O)C(=O)NO)cc1', 'TGI', '> 100 µM'),
  ('CN(CCCCCl)P(=O)(OCc1ccc([N+](=O)[O-])o1)OCC1OC(n2ccc(N)nc2=O)C(F)(F)C1O (centres undefined)', 'TGI', '> 100 µM'),
  ('CC(=O)O[C@]12CCCCC1C1(O)C(O)CCCCC12 (some centres undefined)', 'TGI', '> 100 µM');

Just for reference, PubChem BioAssay (NCI) is where these values come from.
